Biological target: DNA (cytosine-5)-methyltransferase 1 (Homo sapiens)
Assay: human DNMT1 methyltransferase inhibitors, primary screen, biochemical, molecular beacon, fluorescence, HinP1I cleavage, uHTS (AID 588458)
Settings: at 10 µM
In all, about 360,000 compounds went through this assay and about 3,000 (0.83%) were called active. No stated cut-off is given here; in the data, active means inhibition above about 50%; inactive means the rest. The list comes from a sample in which actives are over-represented; it also holds close analogues and randomly drawn compounds.
Write down one outcome, taken from 1 (yes) = active, 0 (no) = inactive

Illustrative cases are given below, each with its answer.
1. CC12CCC3C(CCC4CC(=O)CCC43C)C1CC(=NO)C2=O (stereo unspecified)    0 (no)
2. CC1=C(C(=O)Nc2ccccc2)SCCO1    1 (yes)
3. CC(=NC1CCN(Cc2ccccc2)CC1)c1c(O)n(C)c(=O)n(C)c1=O    0 (no)

Record lookup: outcome of this test for CCOC(=O)c1c(-c2ccccc2)oc2ccc(OC(=O)N(C)C)cc12 ?
0 (no)

Then this compound: Cc1cc(-c2ccc(N)c(C)c2)ccc1N
0 (no)

Then this compound: Cc1cc(C)cc(NC(=S)NC2CC3CCCC(C2)N3Cc2cccs2)c1 (stereo unspecified)
0 (no)
